# targetDesc: Coagulation factor XI (Homo sapiens, UniProt P03951)
# Sequence (P03951 19-387 limits assumed): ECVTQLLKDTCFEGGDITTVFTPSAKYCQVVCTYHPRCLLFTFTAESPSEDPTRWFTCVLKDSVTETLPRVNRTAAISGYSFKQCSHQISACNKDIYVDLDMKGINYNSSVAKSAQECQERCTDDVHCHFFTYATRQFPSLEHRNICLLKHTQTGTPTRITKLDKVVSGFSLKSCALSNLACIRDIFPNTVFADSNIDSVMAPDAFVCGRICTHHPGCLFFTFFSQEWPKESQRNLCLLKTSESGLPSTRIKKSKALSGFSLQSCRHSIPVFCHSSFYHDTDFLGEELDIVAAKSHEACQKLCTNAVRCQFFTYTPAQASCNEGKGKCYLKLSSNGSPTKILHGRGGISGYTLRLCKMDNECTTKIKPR
# Sequence (P03951 388-625 limits assumed): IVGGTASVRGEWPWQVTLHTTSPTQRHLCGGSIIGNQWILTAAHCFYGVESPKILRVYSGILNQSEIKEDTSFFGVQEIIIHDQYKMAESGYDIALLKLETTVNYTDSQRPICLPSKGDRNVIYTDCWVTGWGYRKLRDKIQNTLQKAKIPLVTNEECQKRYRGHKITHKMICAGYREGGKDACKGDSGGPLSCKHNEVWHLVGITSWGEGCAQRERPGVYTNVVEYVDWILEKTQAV
# experimentalProtocol: Inhibition of factor 11a
measuredMetric: Kic (µM)

Recorded Kic, per entry:
- CC(C)C[C@@H]1NC(=O)[C@@H](C2CCCCC2)NS(=O)(=O)CCCCCc2[nH]c3ccc(Cl)cc3c2CNC1=O: 87.9
- C=CCCC(=O)N[C@@H](C(=O)N[C@@H](CC(C)C)C(=O)NCc1c(CC=C)[nH]c2ccc(Cl)cc12)C1CCCCC1: 51.6

A: C=CCc1[nH]c2ccc(Cl)cc2c1CNC(=O)[C@H](CC(C)C)NC(=O)[C@H](NC(=O)[C@@H](CC=C)c1ccccc1)C1CCCCC1
B: CC(C)C[C@@H]1NC(=O)[C@@H](C2CCCCC2)NS(=O)(=O)CC/C=C/Cc2[nH]c3ccc(Cl)cc3c2CNC1=O
Hey, between A and B which has a smaller measured Kic? Answer = label.
A

* * *

# targetDesc: Trypsin (Homo sapiens, UniProt P07477+P07478+P35030)
# experimentalProtocol: Inhibition of human trypsin
# Format: protein assay
measuredMetric: IC50 (nM)

Worked examples, 4 compounds total:
• CC(C)C[C@@H]1NC(=O)[C@@H](C2CCCCC2)NC(=O)CCCCCc2[nH]c3ccc(Cl)cc3c2CNC1=O = 10000
• C=CCCS(=O)(=O)N[C@@H](C(=O)N[C@@H](CC(C)C)C(=O)NCc1c(CC=C)[nH]c2ccc(Cl)cc12)C1CCCCC1 = 1160
• CC(C)C[C@@H]1NC(=O)[C@@H](C2CCCCC2)NC(=O)[C@H](c2ccccc2)CCCCc2[nH]c3ccc(Cl)cc3c2CNC1=O = 2310
• C=CCCC(=O)N[C@@H](C(=O)N[C@@H](CC(C)C)C(=O)NCc1c(CC=C)[nH]c2ccc(Cl)cc12)C1CCCCC1 = 2170

A: CC(C)C[C@@H]1NC(=O)[C@@H](C2CCCCC2)NS(=O)(=O)CC/C=C/Cc2[nH]c3ccc(Cl)cc3c2CNC1=O
B: CC(C)C[C@@H]1NC(=O)[C@@H](C2CCCCC2)NC(=O)[C@H](c2ccccc2)C/C=C/Cc2[nH]c3ccc(Cl)cc3c2CNC1=O
Compare the recorded IC50 of A and B ; state which is larger. Lab note: record the label of whichever item you select.
A

I: CC(C)C[C@@H]1NC(=O)[C@@H](C2CCCCC2)NS(=O)(=O)CCCCCc2[nH]c3ccc(Cl)cc3c2CNC1=O
II: C=CCc1[nH]c2ccc(Cl)cc2c1CNC(=O)[C@H](CC(C)C)NC(=O)[C@H](NC(=O)[C@@H](CC=C)c1ccccc1)C1CCCCC1
Of I and II , whose reported IC50 is the larger number? Which one? Tell me its label.
I
(I: 2430 nM, II: 160 nM)

* * *

# targetDesc: Vitamin K-dependent protein C (Homo sapiens)
# Sequence (P04070 43-197 limits assumed): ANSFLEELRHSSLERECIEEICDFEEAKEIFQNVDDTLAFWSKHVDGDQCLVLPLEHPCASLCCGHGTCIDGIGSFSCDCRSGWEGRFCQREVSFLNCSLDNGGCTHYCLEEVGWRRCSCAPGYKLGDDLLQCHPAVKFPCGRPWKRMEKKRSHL
# Sequence (P04070 212-461 limits assumed): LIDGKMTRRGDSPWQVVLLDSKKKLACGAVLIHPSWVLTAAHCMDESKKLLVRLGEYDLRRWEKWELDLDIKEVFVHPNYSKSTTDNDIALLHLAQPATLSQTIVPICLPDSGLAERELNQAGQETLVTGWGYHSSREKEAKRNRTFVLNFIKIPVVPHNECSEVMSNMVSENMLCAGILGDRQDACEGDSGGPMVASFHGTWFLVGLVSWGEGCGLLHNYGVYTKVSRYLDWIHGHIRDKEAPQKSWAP
# experimentalProtocol: Inhibition of activated protein C
measuredMetric: Kic (µM)

Illustrative cases are given below, each with its answer.
- CC(C)C[C@@H]1NC(=O)[C@@H](C2CCCCC2)NC(=O)[C@H](c2ccccc2)C/C=C/Cc2[nH]c3ccc(Cl)cc3c2CNC1=O: 116
- C=CCCC(=O)N[C@@H](C(=O)N[C@@H](CC(C)C)C(=O)NCc1c(CC=C)[nH]c2ccc(Cl)cc12)C1CCCCC1: 227

a: CC(C)C[C@@H]1NC(=O)[C@@H](C2CCCCC2)NC(=O)CCCCCc2[nH]c3ccc(Cl)cc3c2CNC1=O
b: C=CCc1[nH]c2ccc(Cl)cc2c1CNC(=O)[C@H](CC(C)C)NC(=O)[C@H](NC(=O)[C@@H](CC=C)c1ccccc1)C1CCCCC1
Between the entries labelled a and b , which has a larger Kic value on record? Answer with the label corresponding to your selection.
a

* * *

# targetDesc: Coagulation factor XI (Homo sapiens, UniProt P03951)
measuredMetric: IC50 (µM)

a: CC(C)C[C@@H]1NC(=O)[C@@H](C2CCCCC2)NS(=O)(=O)CCCCCc2[nH]c3ccc(Cl)cc3c2CNC1=O
b: CC(C)C[C@@H]1NC(=O)[C@@H](C2CCCCC2)NS(=O)(=O)CC/C=C/Cc2[nH]c3ccc(Cl)cc3c2CNC1=O
Higher IC50 between a and b ? Write down the label of the entry you select.
b
(b: 768 µM, a: 176 µM)

* * *

# targetDesc: Vitamin K-dependent protein C (Homo sapiens)
# experimentalProtocol: Inhibition of activated protein C
measuredMetric: IC50 (µM)

These solved cases illustrate the format of a correct answer.
- C=CCc1[nH]c2ccc(Cl)cc2c1CNC(=O)[C@H](CC(C)C)NC(=O)[C@H](NC(=O)[C@@H](CC=C)c1ccccc1)C1CCCCC1: 103
- C=CCCC(=O)N[C@@H](C(=O)N[C@@H](CC(C)C)C(=O)NCc1c(CC=C)[nH]c2ccc(Cl)cc12)C1CCCCC1: 284

a: CC(C)C[C@@H]1NC(=O)[C@@H](C2CCCCC2)NC(=O)CCCCCc2[nH]c3ccc(Cl)cc3c2CNC1=O
b: CC(C)C[C@@H]1NC(=O)[C@@H](C2CCCCC2)NC(=O)[C@H](c2ccccc2)C/C=C/Cc2[nH]c3ccc(Cl)cc3c2CNC1=O
In terms of reported IC50, does a or b have the smaller number? Choose, then provide that item's label.
b
